measured on: human B1R receptor (hB1R) (Homo sapiens, UniProt P46663)
Construct: host or cells: CHO K1 cells
Sequence (P46663 whole entry): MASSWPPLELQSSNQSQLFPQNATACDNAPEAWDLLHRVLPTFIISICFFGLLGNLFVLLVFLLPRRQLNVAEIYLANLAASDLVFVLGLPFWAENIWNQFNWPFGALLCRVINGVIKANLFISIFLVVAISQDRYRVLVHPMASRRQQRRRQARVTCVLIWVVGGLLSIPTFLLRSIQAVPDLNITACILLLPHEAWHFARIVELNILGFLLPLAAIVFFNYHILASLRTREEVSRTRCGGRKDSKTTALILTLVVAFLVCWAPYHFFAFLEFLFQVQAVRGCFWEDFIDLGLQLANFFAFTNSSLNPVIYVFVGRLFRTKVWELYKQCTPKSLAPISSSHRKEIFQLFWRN
test details: FLIPR Ca2+ assay on hB1R-transfected CHO K1 cells, antagonistic action
Type: cell-based
settings: CHO-K1, 10 μM test substance; agonist Lys-Des-Arg9-bradykinin 0.5 nM; % of maximum achievable inhibition; read-out: hB1R [10 μM] % inhibition
I'd appreciate it if you could supply inhibition at 10 µM values for the items below.
# include the unit after the value

// solved cases for inhibition at 10 µM follow
COc1cc(C)c(S(=O)(=O)N(C)CCOCC(=O)NC2CCC(c3ccccc3)(N3CCCCC3)CC2)c(C)c1C (stereo not drawn) | 60%
CN(CCOCC(=O)NC1CCC(c2ccccc2)(N2CCCC2)CC1)S(=O)(=O)c1ccc(Cl)cc1Cl (stereo not drawn) | 41%
COc1cc(C)c(S(=O)(=O)N(C)CCOCC(=O)N(C)CCC2CCC(Cc3ccccc3)(N3CCCC3)CC2)c(C)c1 (stereo not drawn) | 105%
COc1cc(C)c(S(=O)(=O)N2CCCC[C@H]2COCC(=O)N(C)CCC2CCC(c3ccccc3)(N3CCC3)CC2)c(C)c1 (stereo partly drawn) | 100%
CN(CC1CCC(CCc2ccccc2)(N2CCCC2)CC1)C(=O)CC(NS(=O)(=O)c1ccc2ccccc2c1)c1ccccc1 (stereo not drawn) | 92%
CN(C)C1(CCc2ccccc2)CCC(NC(=O)CC2c3ccccc3CCN2S(=O)(=O)c2ccc(Cl)c(Cl)c2)CC1 (stereo not drawn) | 96%
COc1cc(C)c(S(=O)(=O)N2CCCC2COCC(=O)NCC2CCC(Cc3ccccc3)(N3CCOCC3)CC2)c(C)c1 (stereo not drawn) | 41%
Cc1cc(S(=O)(=O)N2CCCCC2CCC(=O)N2CCC(Cc3ccccc3)(N(C)C)CC2)c(C)cc1Cl (stereo not drawn) | 86%

Let us move to another entry and its inhibition at 10 µM.
# query: inhibition at 10 µM of entry CN1CCN(C2(c3ccc(F)cc3)CCN(C(=O)COCC3CCc4ccccc4N3S(=O)(=O)c3ccc(Cl)c(Cl)c3)CC2)CC1 (stereo not drawn)
87%
